System tested: IL36R
Assay comment: Kd (SPR)
In this section, each of the binders is paired with its reported Kd.
Experimental endpoint: Kd (nM)

Binder	Experimental endpoint	Observed
unnamed (protein) chain 1: QVQLVQSGAEVKKPGASVKVSCKASGYSFTSSWIHWVKQAPGQGLEWMGEINPGNVRTNYNENFRNKVTMTVDTSISTAYMELSRLRSDDTAVYYCTRVRFGEPWFDYWGQGTLVTVSS chain 2: QIVLTQSPGTLSLSPGERATMTCTASSSVSSSYFHWYQQKPGQAPRLWIYRTSRLASGVPDRFSGSGSGTDFTLTISRLEPEDAATYYCHQFHRSPLTFGAGTKLEIK	Kd	4.32
unnamed (protein) chain 1: QVQLVQSGAEVKKPGASVKVSCKASGYTFTSNWIHWVKQAPGQGLEWMGEIYPGNSNTNYNENFRNKVTMTVDTSISTAYMELSRLRSDDTAVYYCTRVRYGEPYFDYWGQGTLVTVSS chain 2: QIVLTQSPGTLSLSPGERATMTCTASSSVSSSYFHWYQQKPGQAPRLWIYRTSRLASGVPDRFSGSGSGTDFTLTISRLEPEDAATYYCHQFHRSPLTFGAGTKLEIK	Kd	14.6
unnamed (protein) chain 1: QVQLVQSGAEVKKPGASVKVSCKASGYTFTSNWIHWVKQAPGQGLEWMGEIYPGNSNTNYNENFRNKVTMTVDTSISTAYMELSRLRSDDTAVYYCTRVSYGEPYFDYWGQGTLVTVSS chain 2: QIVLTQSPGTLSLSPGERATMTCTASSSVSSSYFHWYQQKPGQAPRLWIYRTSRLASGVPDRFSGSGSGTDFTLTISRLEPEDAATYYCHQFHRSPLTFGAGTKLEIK	Kd	11
